B1: FBXO3 (parent)
chain: GGFPIIRDQIFRYVHDPECVATTG

- Variants of: B1
- procedure.summary: protein stability index of a GFP-peptide fusion (GPS, HEK-293T) (PSI 1-6); higher = more stable;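 further: lentivirally expressed fusions sorted by FACS into six bins by GFP to DsRed ratio, PSI derived from sequencing read proportions per bin multiplied by bin number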
- protocol.conditions: c terminus: a fixed tail appended
Binary call on protein stability index: Fulfilled from 2 upward, Not fulfilled beneath that.

variant.spec	category
D16F	Not fulfilled
A21M	Fulfilled
G24E	Fulfilled
D16T	Fulfilled
A21W	Not fulfilled
Y13T	Fulfilled
I5K	Not fulfilled
I5H	Fulfilled
T22I	Fulfilled
Q9I	Not fulfilled
R7Q	Fulfilled
G2N	Fulfilled
F3T	Fulfilled
Q9F	Fulfilled
Q9H	Not fulfilled
P17E	Fulfilled
V14T	Fulfilled
G24W	Not fulfilled
F3E	Fulfilled
T22D	Fulfilled
P17I	Not fulfilled
A21V	Not fulfilled
Y13S	Fulfilled
G2Q	Not fulfilled
V20P	Fulfilled
G24V	Not fulfilled
V20D	Not fulfilled
D16A	Not fulfilled
G1T	Fulfilled
G24I	Not fulfilled
T22Q	Not fulfilled
D8P	Not fulfilled
Y13N	Fulfilled
V20T	Not fulfilled
D8N	Not fulfilled
V14E	Fulfilled
I5L	Not fulfilled
F3Q	Fulfilled
I10S	Fulfilled
T22H	Not fulfilled
Y13Q	Fulfilled
V20N	Fulfilled
I6G	Fulfilled
P4E	Fulfilled
R12S	Fulfilled
F11C	Fulfilled
A21Y	Fulfilled
E18Y	Fulfilled
V20A	Fulfilled
V14H	Fulfilled
H15M	Not fulfilled
T23E	Fulfilled
R12M	Not fulfilled
P4D	Fulfilled
H15N	Not fulfilled
F11L	Fulfilled
R7Y	Not fulfilled
A21P	Not fulfilled
T23S	Not fulfilled
P4L	Fulfilled
Y13K	Fulfilled
G1K	Fulfilled
H15I	Not fulfilled
Y13I	Fulfilled
Q9K	Not fulfilled
T22C	Not fulfilled
G24A	Not fulfilled
R7H	Fulfilled
I5G	Fulfilled
I5T	Fulfilled
I6H	Fulfilled

The reported measurements were obtained from the supplement of paper PMC10567573.
